- Target or system: T1, human IFNAR-1 protein (form not stated) (human, UniProt P17181 28-436, limits assumed)
- T1 construct: bispecific ELISA
- T1 sequence (looked up): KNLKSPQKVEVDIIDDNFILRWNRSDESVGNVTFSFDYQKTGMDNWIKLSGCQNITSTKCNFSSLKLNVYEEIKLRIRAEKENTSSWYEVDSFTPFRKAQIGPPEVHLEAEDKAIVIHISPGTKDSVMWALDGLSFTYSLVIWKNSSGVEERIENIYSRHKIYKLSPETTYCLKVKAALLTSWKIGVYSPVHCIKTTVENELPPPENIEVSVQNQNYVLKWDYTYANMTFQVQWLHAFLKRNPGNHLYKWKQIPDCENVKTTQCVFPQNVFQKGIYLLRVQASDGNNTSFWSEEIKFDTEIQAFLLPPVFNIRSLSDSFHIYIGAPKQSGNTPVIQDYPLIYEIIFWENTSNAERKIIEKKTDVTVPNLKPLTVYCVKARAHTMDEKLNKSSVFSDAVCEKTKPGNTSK
- Experiment description: affinity ranking of expressed humanized 485G10 IgGs (method not named)
Value type: kon (M⁻¹ s⁻¹)
Respond with the bare value in M⁻¹ s⁻¹.

Binder	kon / M⁻¹ s⁻¹
485G10-H1L2 (antibody, V domains shown, Humanized IgG expressed in HEK293; also called VH1 + VL2 (485G10)) VH: QVQLVQSGAEVKKPGASVKVSCKASGFNIKDYYIHWVRQAPGQGLEWMGRIDPEDAETKYAPKFQGRVTMTADTSISTAYMELSRLRSDDTVVYYCARYHGYWALDYWGQGTLVTVSS VL: DIQMTQSPSSLSTSVGDRVTITCKTSQNVGTNVAWYQQKPGKAPKPLIYSTSYRYSGVPSRFSGSGSGTDFTLTISSLQPEDFATYYCHQYFSYPYTFGPGTKVDIK	308000
485G10 humanized VH3 + VL2 (antibody, V domains shown, Humanized IgG expressed in HEK293; also called VH3 + VL2 (485G10)) VH: QVQLVQSGAEVKKPGASVKLSCKGSGFNIKDYYIHWVKQAPGQGLEWIGRIDPEDAETKYAPKFQGRATITADTSISTAYLELSRLRSDDTVVYYCGRYHGYWALDYWGQGTLVTVSS VL: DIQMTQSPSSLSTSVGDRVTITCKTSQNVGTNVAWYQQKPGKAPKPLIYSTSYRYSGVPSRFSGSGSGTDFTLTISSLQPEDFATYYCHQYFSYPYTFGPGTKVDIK	306000
485G10 humanized VH2 + VL2 (antibody, V domains shown, Humanized IgG expressed in HEK293; also called VH2 + VL2 (485G10)) VH: QVQLVQSGAEVKKPGASVKLSCKASGFNIKDYYIHWVKQAPGQGLEWIGRIDPEDAETKYAPKFQGRVTMTADTSISTAYMELSRLRSDDTVVYYCGRYHGYWALDYWGQGTLVTVSS VL: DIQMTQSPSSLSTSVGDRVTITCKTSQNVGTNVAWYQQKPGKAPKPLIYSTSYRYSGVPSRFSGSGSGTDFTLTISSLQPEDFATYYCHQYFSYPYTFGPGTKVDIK	329000
485G10 humanized VH1 + VL1 (antibody, V domains shown, Humanized IgG expressed in HEK293; also called VH1 + VL1 (485G10)) VH: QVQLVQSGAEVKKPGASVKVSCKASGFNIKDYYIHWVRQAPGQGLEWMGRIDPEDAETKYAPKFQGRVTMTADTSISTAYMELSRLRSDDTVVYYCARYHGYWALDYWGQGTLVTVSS VL: DIQMTQSPSSLSASVGDRVTITCKTSQNVGTNVAWFQQKPGKAPKSLIYSTSYRYSGVPSRFSGSGSGTDFTLTISSLQPEDFATYYCHQYFSYPYTFGPGTKVDIK	328000
485G10-H1L4 (antibody, V domains shown, Humanized IgG expressed in HEK293; also called VH1 + VL4 (485G10)) VH: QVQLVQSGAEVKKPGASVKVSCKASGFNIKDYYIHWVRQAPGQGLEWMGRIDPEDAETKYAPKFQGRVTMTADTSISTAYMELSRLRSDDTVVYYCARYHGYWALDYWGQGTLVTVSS VL: DIQMTQSPSSLSTSVGDRVTVTCKTSQNVGTNVAWYQQKPGKAPKPLIYSTSYRYSGVPSRFSGSGSGTDFTLTISSVQPEDFATYYCHQYFSYPYTFGPGTKLDIK	327000

### Prompt Assign kon to the following record: 485G10-H1L3 (antibody, V domains shown, Humanized IgG expressed in HEK293; also called VH1 + VL3 (485G10)) VH: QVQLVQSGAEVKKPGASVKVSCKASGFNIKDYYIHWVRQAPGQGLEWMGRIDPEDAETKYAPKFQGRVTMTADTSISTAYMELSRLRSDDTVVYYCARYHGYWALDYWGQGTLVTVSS VL: DIQMTQSPSSLSTSVGDRVTITCKTSQNVGTNVAWYQQKPGKAPKPLIYSTSYRYSGVPSRFSGSGSGTDFTLTISSVQPEDFATYYCHQYFSYPYTFGPGTKLDIK
### Response 311000

### Prompt Assign kon to the following record: 485G10 humanized VH3 + VL4 (antibody, V domains shown, Humanized IgG expressed in HEK293; also called VH3 + VL4 (485G10)) VH: QVQLVQSGAEVKKPGASVKLSCKGSGFNIKDYYIHWVKQAPGQGLEWIGRIDPEDAETKYAPKFQGRATITADTSISTAYLELSRLRSDDTVVYYCGRYHGYWALDYWGQGTLVTVSS VL: DIQMTQSPSSLSTSVGDRVTVTCKTSQNVGTNVAWYQQKPGKAPKPLIYSTSYRYSGVPSRFSGSGSGTDFTLTISSVQPEDFATYYCHQYFSYPYTFGPGTKLDIK
### Response 354000

meta.source: patent US20200399381A1
